experiment: Stability of organophosphates by differential scanning calorimetry (DSC); format: physicochemical; details: DSC
Property: Onset of Decomposition; scope: individual molecules
property_measured: Onset of Decomposition (°C)

molecule	property_measured	experimental_result
CCOP(=O)(OCC)OC(=CCl)c1ccc(Cl)cc1Cl [Chlorfenvinphos]	Onset of Decomposition	157
COP(=O)(OC)O/C(=C\Cl)c1cc(Cl)c(Cl)cc1Cl [Tetrachlorvinphos]	Onset of Decomposition	190
CNC(=O)CSP(=S)(OC)OC [Dimethoate]	Onset of Decomposition	105
COP(=O)(OC)OC(Br)C(Cl)(Cl)Br (centres unmarked) [Dibrom]	Onset of Decomposition	103
COP(=S)(OC)Oc1ccc(Sc2ccc(OP(=S)(OC)OC)cc2)cc1 [Temephos]	Onset of Decomposition	142
